Provenance of the data: PubChem BioAssay AID330

Recorded T/C, one value per entry.
System: P388 leukemia ip, CD2F1 mice, survival T/C
Assay: NCI In Vivo Anticancer Drug Screen. Data for tumor model P388 Leukemia (intraperitoneal) in CD2F1 (CDF1) mice
Settings: endpoint: median survival time; dose: 200.0 mg/kg/injection; schedule: Q01DX005 (ip); vehicle: Klucel (hydroxypropylcellulose) (HPC); higher = longer survival
Inconclusive results and toxic doses are left out.

COMPOUND	READING
[O-][n+]1c2ccccc2nc2ccccc21	100 % of control

Data point: CC1CCC(OC(=O)NCCCl)CC1 (centres undefined) ; T/C = 101 % of control

Data point: CC(NC(=O)C(Cl)Cl)C(=O)O (centres undefined) ; T/C = 96 % of control

Data point: Cc1ccc(S(=O)(=O)NC(CN(CC(=O)O)N=O)C(=O)O)cc1 (centres undefined) ; T/C = 98 % of control

Data point: "CCOP(=O)(Nc1c(Cl)cc2c(c1Cl)Cc1cc([N+](=O)[O-])ccc1-2)OCC" ; T/C = 88 % of control

---

System: P388 leukemia ip, CD2F1 mice, survival T/C
Test: NCI In Vivo Anticancer Drug Screen. Data for tumor model P388 Leukemia (intraperitoneal) in CD2F1 (CDF1) mice
Conditions: endpoint: median survival time; dose: 12.5 mg/kg/injection; schedule: Q01DX009 (ip); vehicle: Klucel (hydroxypropylcellulose) (HPC)
Inconclusive results and toxic doses are left out. Rule for the calls: active = survival T/C of 150% or more; inactive = T/C below 125% in these data.
Respond only with the outcome that fits, drawn from active, inactive

Sample answers from the record:
MOLECULE	ASSIGNED CATEGORY
O=S(=O)(OCC#CCOS(=O)(=O)c1ccc(Cl)c(Cl)c1)c1ccc(Cl)c(Cl)c1	inactive
Cc1ccc(C(=O)N/N=C/C(=O)O)cc1	inactive
O=S(=O)(Cl)CCCCS(=O)(=O)Cl	inactive
C=CC#CC#Cc1ccc(C#CC)s1	inactive
COc1ccc2nc(C)cc(N/N=C/c3cccnc3)c2c1	inactive
COc1cc2c(/C=N/NS(=O)(=O)c3ccc(C)cc3)c(Cl)[nH]c2cc1C	inactive
ClC1CC[N-]CC1.ClC1CC[N-]CC1.[Cl][Pt+2]([Cl])([Cl])[Cl]	active
CCCCC[P+](c1ccccc1)(c1ccccc1)c1ccccc1	inactive

Any idea what this test logged for "NS(=O)(=O)c1ccc(NC(=O)CCl)cc1" ?
inactive

Any idea what this test logged for CCOC1NC(=O)Oc2ccccc21 (stereo unspecified) ?
inactive

Any idea what this test logged for "NC(=O)c1cc([N+](=O)[O-])cnc1Sc1ncccn1" ?
inactive

---

Tested on: P388 leukemia ip, CD2F1 mice, survival T/C
Experiment: NCI In Vivo Anticancer Drug Screen. Data for tumor model P388 Leukemia (intraperitoneal) in CD2F1 (CDF1) mice
Details: endpoint: median survival time; dose: 400.0 mg/kg/injection; schedule: Q04DX003 (ip); vehicle: Klucel (hydroxypropylcellulose) (HPC); higher = longer survival
Inconclusive results and toxic doses are left out.
TEST READOUT: T/C

Consider the reported T/C for these molecules:
MOLECULE	T/C
c1ccc(C2(c3ccccc3)CCc3ccccc3O2)cc1	99 % of control
Clc1ccc(CN2COc3c(cc(Cl)c4cccnc34)C2)c(Cl)c1	87 % of control
CCCCCCCn1cnc2cc(N3CCOCC3)c([N+](=O)[O-])cc2c1=O	100 % of control
CC(=N\NC(N)=S)/C(C)=N/Nc1ccccc1	100 % of control
CC(C)(C)c1cc(C(=O)O)c2c(c1)C(=O)OCS2	97 % of control

Data point: "Cc1ccc(/C=C2/C/C(=C\c3ccc(C)cc3)C2=O)cc1" ; T/C = 88 % of control

Data point: CC1CCCCN1c1cc2nc[nH]c(=O)c2cc1[N+](=O)[O-] (centres undefined) ; T/C = 100 % of control

Data point: O=C1CC(c2ccccc2)C(c2ccccc2)CO1 (centres undefined) ; T/C = 87 % of control

Data point: c1ccc(CC2NC(Cc3ccccc3)N3C(Cc4ccccc4)N23)cc1 (centres undefined) ; T/C = 93 % of control

---

Test system: P388 leukemia ip, CD2F1 mice, survival T/C
Test: NCI In Vivo Anticancer Drug Screen. Data for tumor model P388 Leukemia (intraperitoneal) in CD2F1 (CDF1) mice
Settings: endpoint: median survival time; dose: 12.5 mg/kg/injection; schedule: Q01DX005 (ip); vehicle: saline; higher = longer survival
Experimental: The antitumor activity of compounds was measured in mice bearing transplantable tumors. Survival or tumor size were measured and the results are expressed as the measurement made in the treated group (T) divided by the measurement made in the vehicle treated control group (C). The tumor model used in this assay is P388 Leukemia (intraperitoneal) in CD2F1 (CDF1) mice
Toxic doses and inconclusive results are not listed.
Recorded T/C, one value per entry.

Consider the reported T/C for these compounds:
COMPOUND	READING
[Cl][Co][Cl].[NH-]CC[N-]CC[N-]CC[NH-]	100 % of control
CCOP(=O)(N=Nc1ccc(OC)nc1)OCC	102 % of control
NC1C([O-])OC(CO)C(O)C1O.O=C1OC(C(O)CO)C([O-])=C1[OH2+].[Cu+2] (centres undefined)	99 % of control

Kindly consider the entry below.
Data point: "COC(=O)[CH2][Sn]([CH3])([CH3])[CH2]C(=O)OC" ; T/C = 114 % of control

---

Recorded T/C, one value per entry.
System: P388 leukemia ip, CD2F1 mice, survival T/C
Assay: NCI In Vivo Anticancer Drug Screen. Data for tumor model P388 Leukemia (intraperitoneal) in CD2F1 (CDF1) mice
Conditions: endpoint: median survival time; dose: 100.0 mg/kg/injection; schedule: Q04DX002 (ip); vehicle: saline with Tween-80; higher = longer survival
Inconclusive results and toxic doses are left out.

COMPOUND	T/C
O=C(Nc1ccccc1C(=O)Nc1ccccc1C(=O)O)c1cccnc1	109 % of control
CSC(=S)/C=C1\SC=CN1C	100 % of control
CCCCCCn1c(Cl)c(C(=O)O)c2ccccc21	99 % of control
CC(C)(C)C1CCC(=NSC(c2ccccc2)(c2ccccc2)c2ccccc2)CC1 (centres undefined)	95 % of control
C/C(=N\NC(N)=Nc1ccc(Cl)cc1)c1ccc2c(c1)Cc1cc(/C(C)=N/NC(N)=Nc3ccc(Cl)cc3)ccc1-2	97 % of control

Data point: "Cc1ccc2sc(-c3ccccc3)c(CCl)c(=O)c2c1" ; T/C = 102 % of control

Data point: ClC1COc2cc(c3ccccc3c2)-c2c(ccc3ccccc23)OCCOCCOc2ccc3ccccc3c2-c2c(ccc3ccccc23)OCC(Cl)O1 (centres undefined) ; T/C = 102 % of control

Data point: "CCNCC(=O)Nc1ccc2c(c1)C(=O)c1ccc(NC(=O)CNCC)cc1C2=O" ; T/C = 102 % of control

Data point: "NC(=S)N/N=C/c1nc2ccccc2c(=O)n1-c1ccc(Cl)cc1" ; T/C = 104 % of control

Data point: "COC(=O)c1ccccc1-c1ccccc1C=O" ; T/C = 97 % of control

Data point: "CCCCNc1c(C(=O)OCC)cnc2c1cnn2CC" ; T/C = 102 % of control

Data point: "CN1CCc2c(n(C)c3ccccc23)C1=O" ; T/C = 106 % of control

Data point: "CSC(=S)/N=c1\ccccn1C" ; T/C = 102 % of control

Data point: "COCOc1c(C)ccc2c1CCC2" ; T/C = 91 % of control

---

System: P388 leukemia ip, CD2F1 mice, survival T/C
Assay: NCI In Vivo Anticancer Drug Screen. Data for tumor model P388 Leukemia (intraperitoneal) in CD2F1 (CDF1) mice
Settings: endpoint: median survival time; dose: 240.0 mg/kg/injection; schedule: Q01DX005 (ip); vehicle: saline with Tween-80; higher = longer survival
Toxic doses and inconclusive results are not listed.
Recorded T/C, one value per entry.

Consider the reported T/C for these molecules:
MOLECULE	T/C
CS(=O)Cc1cc(-c2ccccc2)no1 (stereo not drawn)	97 % of control
O=CC1CCC(c2ccc3ccccc3c2)O1 (stereo not drawn)	114 % of control
CC(C)c1c(OC(=O)N(C)C)c(C#N)c2[nH]c3ccccc3n2c1=O	86 % of control
c1ccc(-c2nc3cccnc3s2)cc1	104 % of control
COC(=O)C(C)Oc1ccc(OC#N)cc1 (stereo not drawn)	93 % of control

Data point: "Cc1cc2nnn(-c3ncccc3[N+](=O)[O-])c2cc1C" ; T/C = 101 % of control

Data point: "Cc1c(-c2nnc(N)o2)cc([N+](=O)[O-])cc1[N+](=O)[O-]" ; T/C = 99 % of control

Data point: "C/C(=C\C(=O)Nc1ccc(S(=O)(=O)F)cc1)c1ccc([N+](=O)[O-])cc1" ; T/C = 90 % of control

Data point: "Cc1cc(CSCCc2nc3ccccc3[nH]2)c(O)c(CSCCc2nc3ccccc3[nH]2)c1" ; T/C = 90 % of control

Data point: "COc1cc(/C=N\N=c2\sc3ccccc3n2C)ccc1OCCO" ; T/C = 91 % of control

Data point: COc1cc(C(c2c(O)c3ccccc3oc2=O)N2CCCC2)cc(OC)c1OC (stereo not drawn) ; T/C = 104 % of control

Data point: Cc1ccc(S(=O)(=O)OCC2COC(C(C)C)OC2)cc1 (stereo not drawn) ; T/C = 90 % of control

Data point: "CCOC(=O)c1c(Cl)c(Cc2ccccc2)c(Cl)n2c1nc1ccccc12" ; T/C = 89 % of control
